# credit: patent US11135237B2

# Tested on: Burkholderia multivorans ATCC BAA-247
property-measured: MIC (µg/mL)

Below, 3 molecules whose answers are already recorded.
CCCCCCCCCCCCCCCOP(=O)(CCN(CCCNC(=N)N)CCCNC(=N)N)OC[C@H]1O[C@@H](n2ccc(=O)[nH]c2=O)C(O)C1O (stereo partly drawn) [Example 8]; 100
CCCCCCCCCCCCCCOP(=O)(CCN(CCN)CCN)OC[C@H]1O[C@@H](n2ccc(=O)[nH]c2=O)C(O)C1O (stereo partly drawn) [Example 7]; 12.5
CCCCCCCCCCCCCCOP(=O)(CCN(CCCN)CCCN)OC[C@H]1O[C@@H](n2ccc(=O)[nH]c2=O)C(O)C1O (stereo partly drawn) [Example 3]; 200

P. CCCCCCCCCCCCCOP(=O)(CCN(CCCN)CCCN)OC[C@H]1O[C@@H](n2ccc(=O)[nH]c2=O)C(O)C1O (stereo partly drawn) [Example 4]
Q. CCCCCCCCCCCCCCCOP(=O)(CCN(CCCN)CCCN)OC[C@H]1O[C@@H](n2ccc(=O)[nH]c2=O)C(O)C1O (stereo partly drawn) [Example 2]
R. CCCCCCCCCCCCCCOP(=O)(CCN(CCCNC(=N)N)CCCNC(=N)N)OC[C@H]1O[C@@H](n2ccc(=O)[nH]c2=O)C(O)C1O (stereo partly drawn) [Example 9]
Ordering: ascending MIC. The labels, placed in the requested order, form the answer.
Q, P, R
(Q: 12.5 µg/mL, P: 50 µg/mL, R: 100 µg/mL)
